Reported % of injected dose remaining in liver by item:
Assay comment: Peptoid quantity remaining in liver by HPLC-TOF mass spectrometry
Assay type: in vivo
Experimental parameters: liver homogenate
Non-standard residues stand in square brackets, D forms with d. Residues, ends and D or L forms follow the SMILES beside them. *: point of attachment. Gly(N-(3-decanoyloxypropyl)) = CCCCCCCCCC(=O)OCCCNCC(=O)O; N(3-lauroyloxypropyl)Gly = CCCCCCCCCCCC(=O)OCCCNCC(=O)O; N(3-imidazol-1-ylpropyl)Gly = O=C(O)CNCCCn1ccnc1; Gly(N-3-morpholinopropyl) = O=C(O)CNCCCN1CCOCC1; N(2-ethylhexyl)Gly = CCCCC(CC)CNCC(=O)O; Gly(N-dodecyl) = CCCCCCCCCCCCNCC(=O)O; N(CH(CH2OH)2)Gly = O=C(O)CNC(CO)CO; N(octyl)Gly = CCCCCCCCNCC(=O)O; For = O=C*
Readout: % of injected dose remaining in liver (%)

Compound	Numeric result
CCCCCCCCCCCCN(C=O)CC(=O)N(CCCOC(=O)CCCCCCCCCCC)CC(=O)N(CC(=O)N(CCCn1ccnc1)CC(=O)N(CC(=O)N(CCCOC(=O)CCCCCCCCCCC)CC(=O)N(CCCCCCCCCCCC)CC(N)=O)CC(CC)CCCC)CC(CC)CCCC (stereo not drawn) [Compound 85] (For-[Gly(N-dodecyl)][N(3-lauroyloxypropyl)Gly][N(2-ethylhexyl)Gly][N(3-imidazol-1-ylpropyl)Gly][N(2-ethylhexyl)Gly][N(3-lauroyloxypropyl)Gly][Gly(N-dodecyl)]-NH2)	40.01
CCCCCCCCCC(=O)OCCCN(CC(=O)N(CC(N)=O)CC(CC)CCCC)C(=O)CN(CCCCCCCC)C(=O)CN(CC(CC)CCCC)C(=O)CN(CCCOC(=O)CCCCCCCCC)C(=O)CN(CCCCCCCC)C(=O)CN(C=O)CCCN1CCOCC1 (stereo not drawn) [Compound 110] (For-[Gly(N-3-morpholinopropyl)][N(octyl)Gly][Gly(N-(3-decanoyloxypropyl))][N(2-ethylhexyl)Gly][N(octyl)Gly][Gly(N-(3-decanoyloxypropyl))][N(2-ethylhexyl)Gly]-NH2)	5.52
CCCCCCCCCC(=O)OCCCN(CC(=O)N(CC(N)=O)CC(CC)CCCC)C(=O)CN(CCCCCCCC)C(=O)CN(CC(CC)CCCC)C(=O)CN(CCCOC(=O)CCCCCCCCC)C(=O)CN(CCCCCCCC)C(=O)CNC(CO)CO (stereo not drawn) [Compound 32] (H-[N(CH(CH2OH)2)Gly][N(octyl)Gly][Gly(N-(3-decanoyloxypropyl))][N(2-ethylhexyl)Gly][N(octyl)Gly][Gly(N-(3-decanoyloxypropyl))][N(2-ethylhexyl)Gly]-NH2)	8.18

---

Assay comment: Delivery vehicle size and polydispersity by dynamic light scattering
Type: physicochemical
Experimental parameters: DLS in PBS; peptoid:DSPC:Cholesterol:DMG-PEG2000 weight ratio 20:1.79:7.16:1.84, mRNA
Non-standard residues stand in square brackets, D forms with d. Residues, ends and D or L forms follow the SMILES beside them. Gly(N-(3-decanoyloxypropyl)) = CCCCCCCCCC(=O)OCCCNCC(=O)O; N(3-imidazol-1-ylpropyl)Gly = O=C(O)CNCCCn1ccnc1; NHexGly = CCCCCCNCC(=O)O

Molecule	Particle Size [nm]
CCCCCCCCCC(=O)OCCCN(CC(=O)N(CCCOC(=O)CCCCCCCCC)CC(=O)N(CCCCCC)CC(=O)N(CCCOC(=O)CCCCCCCCC)CC(=O)N(CCCOC(=O)CCCCCCCCC)CC(=O)N(CCCCCC)CC(N)=O)C(=O)CNCCCn1ccnc1 [Compound 109] (H-[N(3-imidazol-1-ylpropyl)Gly][Gly(N-(3-decanoyloxypropyl))][Gly(N-(3-decanoyloxypropyl))][NHexGly][Gly(N-(3-decanoyloxypropyl))][Gly(N-(3-decanoyloxypropyl))][NHexGly]-NH2)	87.5

---

Assay comment: Delivery vehicle size and polydispersity by dynamic light scattering
Assay type: physicochemical
Experimental parameters: formulation recipe F2
Non-standard residues stand in square brackets, D forms with d. Residues, ends and D or L forms follow the SMILES beside them. *: point of attachment. Gly(N-(3-decanoyloxypropyl)) = CCCCCCCCCC(=O)OCCCNCC(=O)O; N(3-lauroyloxypropyl)Gly = CCCCCCCCCCCC(=O)OCCCNCC(=O)O; N(3-imidazol-1-ylpropyl)Gly = O=C(O)CNCCCn1ccnc1; Gly(N-3-morpholinopropyl) = O=C(O)CNCCCN1CCOCC1; N(2-ethylhexyl)Gly = CCCCC(CC)CNCC(=O)O; Gly(N-dodecyl) = CCCCCCCCCCCCNCC(=O)O; For = O=C*
Reported Particle Size by item:
Readout: Particle Size (nm)

Compound	Readout	Numeric result
CCCCCCCCCCCCN(C=O)CC(=O)N(CCCOC(=O)CCCCCCCCC)CC(=O)N(CC(=O)N(CCCN1CCOCC1)CC(=O)N(CC(=O)N(CCCOC(=O)CCCCCCCCC)CC(=O)N(CCCCCCCCCCCC)CC(N)=O)CC(CC)CCCC)CC(CC)CCCC (centres unmarked) [Compound 88] (For-[Gly(N-dodecyl)][Gly(N-(3-decanoyloxypropyl))][N(2-ethylhexyl)Gly][Gly(N-3-morpholinopropyl)][N(2-ethylhexyl)Gly][Gly(N-(3-decanoyloxypropyl))][Gly(N-dodecyl)]-NH2)	Particle Size	72.4
CCCCCCCCCCCC(=O)OCCCN(CC(=O)N(CC(=O)N(CCCn1ccnc1)CC(=O)N(CC(=O)N(CCCOC(=O)CCCCCCCCCCC)CC(=O)N(CC(N)=O)CC(CC)CCCC)CC(CC)CCCC)CC(CC)CCCC)C(=O)CN(C=O)CC(CC)CCCC (centres unmarked) [Compound 82] (For-[N(2-ethylhexyl)Gly][N(3-lauroyloxypropyl)Gly][N(2-ethylhexyl)Gly][N(3-imidazol-1-ylpropyl)Gly][N(2-ethylhexyl)Gly][N(3-lauroyloxypropyl)Gly][N(2-ethylhexyl)Gly]-NH2)	Particle Size	65.9

---

Reported hEPO by item:
Tested on: hEPO
Assay comment: Quantification of hEPO in serum after IV injection of mRNA (Human EPO ELISA)
Assay type: in vivo
Experimental parameters: Balb/c mice, 2.5 μg mRNA IV, serum after 6 hours
Non-standard residues stand in square brackets, D forms with d. Residues, ends and D or L forms follow the SMILES beside them. Gly(N-(3-decanoyloxypropyl)) = CCCCCCCCCC(=O)OCCCNCC(=O)O; N(2-ethylhexyl)Gly = CCCCC(CC)CNCC(=O)O; N(CH(CH2OH)2)Gly = O=C(O)CNC(CO)CO

Compound	System tested	hEPO / ng/mL
CCCCCCCCCC(=O)OCCCN(CC(N)=O)C(=O)CN(CC(CC)CCCC)C(=O)CN(CCCOC(=O)CCCCCCCCC)C(=O)CN(CCCOC(=O)CCCCCCCCC)C(=O)CN(CCCOC(=O)CCCCCCCCC)C(=O)CN(CC(CC)CCCC)C(=O)CNC(CO)CO (centres unmarked) [Compound 103] (H-[N(CH(CH2OH)2)Gly][N(2-ethylhexyl)Gly][Gly(N-(3-decanoyloxypropyl))][Gly(N-(3-decanoyloxypropyl))][Gly(N-(3-decanoyloxypropyl))][N(2-ethylhexyl)Gly][Gly(N-(3-decanoyloxypropyl))]-NH2)	hEPO	961
CCCCCCCCCC(=O)OCCCN(CC(N)=O)C(=O)CN(CCCOC(=O)CCCCCCCCC)C(=O)CN(CC(CC)CCCC)C(=O)CN(CCCOC(=O)CCCCCCCCC)C(=O)CN(CCCOC(=O)CCCCCCCCC)C(=O)CN(CC(CC)CCCC)C(=O)CNC(CO)CO (centres unmarked) [Compound 102] (H-[N(CH(CH2OH)2)Gly][N(2-ethylhexyl)Gly][Gly(N-(3-decanoyloxypropyl))][Gly(N-(3-decanoyloxypropyl))][N(2-ethylhexyl)Gly][Gly(N-(3-decanoyloxypropyl))][Gly(N-(3-decanoyloxypropyl))]-NH2)	hEPO	207

---

Assay comment: Delivery vehicle size and polydispersity by dynamic light scattering
Format: physicochemical
Experimental parameters: DLS in PBS; peptoid:DSPC:Cholesterol:DMG-PEG2000 weight ratio 20:1.79:7.16:1.84, mRNA
Starred links: 1 amine or outer side, 2 acyl side, 3 side chain; linkers in the order of their positions; H or OH if unused. Non-standard residues stand in square brackets, D forms with d. Residues, ends and D or L forms follow the SMILES beside them. *: point of attachment. Gly(N-(3-decanoyloxypropyl)) = CCCCCCCCCC(=O)OCCCNCC(=O)O; N(3-lauroyloxypropyl)Gly = CCCCCCCCCCCC(=O)OCCCNCC(=O)O; N(2-decanoyloxyethyl)Gly = CCCCCCCCCC(=O)OCCNCC(=O)O; Gly(N-(CH2)3O-octanoyl) = CCCCCCCC(=O)OCCCNCC(=O)O; N(3-imidazol-1-ylpropyl)Gly = O=C(O)CNCCCn1ccnc1; Gly(N-3-morpholinopropyl) = O=C(O)CNCCCN1CCOCC1; N(2-ethylhexyl)Gly = CCCCC(CC)CNCC(=O)O; X1 = CCCCC(CC)CSSCCN(CC(=O)[*:2])[*:1]; N(CH(CH2OH)2)Gly = O=C(O)CNC(CO)CO; NDecylGly = CCCCCCCCCCNCC(=O)O; NHexGly = CCCCCCNCC(=O)O; For = O=C*
Each record is given 1 (yes) if its reported Particle Size is strictly below 80 nm. Records at or above 80 nm are given 0 (no).

Molecule	Assigned category
CCCCCCCCCC(=O)OCCN(CC(=O)N(CCOC(=O)CCCCCCCCC)CC(=O)N(CC(=O)N(CCOC(=O)CCCCCCCCC)CC(=O)N(CCOC(=O)CCCCCCCCC)CC(=O)N(CC(N)=O)CC(CC)CCCC)CC(CC)CCCC)C(=O)CNCCCn1ccnc1 (stereo not drawn) [Compound 79] (H-[N(3-imidazol-1-ylpropyl)Gly][N(2-decanoyloxyethyl)Gly][N(2-decanoyloxyethyl)Gly][N(2-ethylhexyl)Gly][N(2-decanoyloxyethyl)Gly][N(2-decanoyloxyethyl)Gly][N(2-ethylhexyl)Gly]-NH2)	1 (yes)
CCCCCCCCCCCC(=O)OCCCN(CC(=O)N(CC(=O)N(CCCCCC)CC(=O)N(CCCOC(=O)CCCCCCCCCCC)CC(=O)N(CC(=O)N(CCCCCC)CC(N)=O)CC(CC)CCCC)CC(CC)CCCC)C(=O)CN(C=O)CCCN1CCOCC1 (stereo not drawn) [Compound 70] (For-[Gly(N-3-morpholinopropyl)][N(3-lauroyloxypropyl)Gly][N(2-ethylhexyl)Gly][NHexGly][N(3-lauroyloxypropyl)Gly][N(2-ethylhexyl)Gly][NHexGly]-NH2)	0 (no)
CCCCCCCCCC(=O)OCCCN(CC(=O)N(CC(=O)N(CCCCCC)CC(=O)N(CCCOC(=O)CCCCCCCCC)CC(=O)N(CC(=O)N(CCCCCC)CC(N)=O)CC(CC)CCCC)CC(CC)CCCC)C(=O)CNC(CO)CO (stereo not drawn) [Compound 55] (H-[N(CH(CH2OH)2)Gly][Gly(N-(3-decanoyloxypropyl))][N(2-ethylhexyl)Gly][NHexGly][Gly(N-(3-decanoyloxypropyl))][N(2-ethylhexyl)Gly][NHexGly]-NH2)	0 (no)
CCCCCCCCCC(=O)OCCN(CC(=O)N(CCOC(=O)CCCCCCCCC)CC(=O)N(CCSSCC(CC)CCCC)CC(=O)N(CCOC(=O)CCCCCCCCC)CC(=O)N(CCOC(=O)CCCCCCCCC)CC(=O)N(CCSSCC(CC)CCCC)CC(N)=O)C(=O)CNC(CO)CO (stereo not drawn) [Compound 135] (H-[N(CH(CH2OH)2)Gly][N(2-decanoyloxyethyl)Gly][N(2-decanoyloxyethyl)Gly][X1][N(2-decanoyloxyethyl)Gly][N(2-decanoyloxyethyl)Gly][X1]-NH2)	1 (yes)
CCCCCCCCCC(=O)OCCCN(CC(=O)N(CC(=O)N(CC(=O)N(CCCOC(=O)CCCCCCCCC)CC(=O)N(CC(N)=O)CC(CC)CCCC)CC(CC)CCCC)CC(CC)CCCC)C(=O)CN(CC(CC)CCCC)C(=O)CNC(CO)CO (stereo not drawn) [Compound 5] (H-[N(CH(CH2OH)2)Gly][N(2-ethylhexyl)Gly][Gly(N-(3-decanoyloxypropyl))][N(2-ethylhexyl)Gly][N(2-ethylhexyl)Gly][Gly(N-(3-decanoyloxypropyl))][N(2-ethylhexyl)Gly]-NH2)	0 (no)
CCCCCCCCCC(=O)OCCN(CC(N)=O)C(=O)CN(CCOC(=O)CCCCCCCCC)C(=O)CN(CC(CC)CCCC)C(=O)CN(CCOC(=O)CCCCCCCCC)C(=O)CN(CCOC(=O)CCCCCCCCC)C(=O)CN(CC(CC)CCCC)C(=O)CNC(CO)CO (stereo not drawn) [Compound 105] (H-[N(CH(CH2OH)2)Gly][N(2-ethylhexyl)Gly][N(2-decanoyloxyethyl)Gly][N(2-decanoyloxyethyl)Gly][N(2-ethylhexyl)Gly][N(2-decanoyloxyethyl)Gly][N(2-decanoyloxyethyl)Gly]-NH2)	1 (yes)
CCCCCCCCCCN(CC(=O)N(CCSSCC(CC)CCCC)CC(=O)N(CCCOC(=O)CCCCCCC)CC(N)=O)C(=O)CN(CCSSCC(CC)CCCC)C(=O)CN(CCCOC(=O)CCCCCCC)C(=O)CN(CC(CC)CCCC)C(=O)CNC(CO)CO (stereo not drawn) [Compound 130] (H-[N(CH(CH2OH)2)Gly][N(2-ethylhexyl)Gly][Gly(N-(CH2)3O-octanoyl)][X1][NDecylGly][X1][Gly(N-(CH2)3O-octanoyl)]-NH2)	1 (yes)

Where these numbers come from: patent US20260373248A1
